tested on: CAL-27 (Oral Cavity Carcinoma); assay: combination Emax (second highest fraction inhibited in the dose matrix, 72 h); higher = more inhibition; extreme values may be limits of the assay
READOUT_KIND: combination Emax
Number only, please.

What combination Emax appears in the records for this compound with CAL-27 (Oral Cavity Carcinoma)? C[C@@H](c1ccc2nccn2c1)n1nnc2ncc(-c3cnn(C)c3)nc21 [Savolitinib] + CC1(C)CCC(CN2CCN(c3ccc(C(=O)NS(=O)(=O)c4ccc(NCC5CCOCC5)c([N+](=O)[O-])c4)c(Oc4cnc5[nH]ccc5c4)c3)CC2)=C(c2ccc(Cl)cc2)C1 [Venetoclax] (first compound max 1 µM, 7x7, partner max 1 µM)
0.0502

What combination Emax appears in the records for this compound with CAL-27 (Oral Cavity Carcinoma)? Cn1cnc2c(F)c(Nc3ccc(Br)cc3Cl)c(C(=O)NOCCO)cc21 [Selumetinib] + C=CCn1c(=O)c2cnc(Nc3ccc(N4CCN(C)CC4)cc3)nc2n1-c1cccc(C(C)(C)O)n1 [AZD1775] (first compound max 10 µM, partner max 1 µM)
0.578

What combination Emax appears in the records for this compound with CAL-27 (Oral Cavity Carcinoma)? Cc1nc(Nc2ncc(C(=O)Nc3c(C)cccc3Cl)s2)cc(N2CCN(CCO)CC2)n1 [Dasatinib] + CC(=O)Nc1cccc(-n2c(=O)n(C3CC3)c(=O)c3c(Nc4ccc(I)cc4F)n(C)c(=O)c(C)c32)c1 [Trametinib] (first compound max 2 µM, 7x7, partner max 1 µM)
0.868
